Target: T1, cynomolgus Trop-2-His protein (cynomolgus, UniProt P09758 27-274 (human entry))
T1 construct: also called cynmolgus Trop-His; Kactus Cat #TRP-CM121; not shown: His tag
T1 chain: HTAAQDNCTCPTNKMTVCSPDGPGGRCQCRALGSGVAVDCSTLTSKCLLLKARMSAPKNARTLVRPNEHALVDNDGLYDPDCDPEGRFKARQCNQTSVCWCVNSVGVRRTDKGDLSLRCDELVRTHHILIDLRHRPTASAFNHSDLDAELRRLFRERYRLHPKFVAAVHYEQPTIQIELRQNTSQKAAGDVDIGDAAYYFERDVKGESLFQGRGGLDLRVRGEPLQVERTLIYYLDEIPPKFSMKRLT
Assay: BLI (Gator Prime), LEM supernatant Ab on HFC probe
ENDPOINT_LABEL: kon (M⁻¹ s⁻¹)
Please give a number only; it is taken to be in M⁻¹ s⁻¹.

3E9 (antibody, V domains shown, Rabbit-derived clone; LEM construct: VH + rabbit IgG CH1 + human IgG1 CH2-CH3) VH: QEQLKESGGGLVQPGGSLKLSCKASGFDFNNYGVSWVRQAPGKGLEWIAYIYPAFHNRYYANWVNGRFTISSDNAQNTVYLQLNSLTAADTATYFCARDAGSTDYKFNLWGPGTLVTVSS VL: DVVMTQTPASVSAAVGGTVTIKCQASEDIESYLAWYQQKPGQPPKLLIYDASTLASGVSSRFSGSGYGTEFTLTISGVECADAATYYCQQDLTVGNVDNPFGGGSEVVVE ... 888000
10A9 (antibody, V domains shown, Rabbit-derived clone; LEM construct: VH + rabbit IgG CH1 + human IgG1 CH2-CH3) VH: QSLEESGGDLVQPGASLTLTCKASGFDLNNYAMLWVRQAPGKGLEWIGCIYISGGTTYFASWATGRFAISKTSSTTVTLQMTSLTAADTATYFCARDDGTTSYYLNLWGPGTLVTVSS VL: YDMTQTPASVSAAVGGTVTIKCQASEDIYSLLAWYQQKPGQPPKLLIYGASNLESGVPSRFKGSGSGTEYTLTISDLECDDAATYYCQQAYTIGNIDNAFGGGTEVVVK ... 569000

The binder listed as 69H10 (antibody, V domains shown, Rabbit-derived clone; LEM construct: VH + rabbit IgG CH1 + human IgG1 CH2-CH3) VH: QEQLKESGGGLVQPGGSLKLSCKASGFDFNKYGVSWVRQAPGKGLEWIAYIYPAFHNTYYATWVNGRFTISSHNAQNTLYLQLNTLTAADTATYFCARDAGTTDYNFNLWGPGTLVTVSS VL: DVVMTQTASPVSAAVGGTVTIKCQASQSIYSYLSWYQQKPGQPPKLLIYEASKLASGVSSRFSGSGYGTEFTLTISGVECADAATYYCQQALTVGNVDNPFGGGSEVVVK has a reported kon of 592000

Data point: 2H3 (antibody, V domains shown, Rabbit-derived clone; LEM construct: VH + rabbit IgG CH1 + human IgG1 CH2-CH3) VH: QEQLKESGGGLGQPGGSLTLSCKASGFDFNNYGVSWVRQAPGKGLEWIGYIYPAYHNTYYATWVNGRFTISSHNAQNTLYLQLNTLTAADTATYFCARDTGTTDYNFNLWGPGTLVTVSS VL: DVVMTQTPASVEVAVGGTVTIKCQASEDIESYLAWYQQKPGQPPKLLIYEASKLASGVSSRFSGGGYGTEFTLTISGVECADAATYYCQQALTVGNVDNPFGGGSEVVVK ; kon = 727000

Entry under test: 9A5 (antibody, V domains shown, Rabbit-derived clone; LEM construct: VH + rabbit IgG CH1 + human IgG1 CH2-CH3) VH: QEQLKESGGGLVQPGGSLTLSCKASGFDFNNYGVSWVRQAPGKGLEWIAYIYPTYHNTYYATWVNGRFTISSHNAQNTLYLQLNTLTAADTATYFCARDAGGTDYNFNLWGPGTLVTVSS VL: DVVMTQTPASVEAAVGGTVTINCQASQSIESYLAWYQQKPGQPPKLLIYEASKLASGVSSRFSGGGYGTEFTLTISGVECADAATYYCQQALTIGNVDNPFGGGSEVVVK . Its kon was 919000
